- System: lung carcinoma NCI-H1299
- experiment_notes: MTT cell viability assay, NCI-H1299
- Assay type: cell-based, human
- reported_conditions: Homo sapiens, NCI-H1299, 72 h, read-out: IC50 NCI-H1299 (lung cancer)

molecule: O=C1NC(CSCSCC2NC(=O)c3ccc([N+](=O)[O-])cc3NC2=O)C(=O)Nc2cc([N+](=O)[O-])ccc21 (stereo not shown)
display_unit: µM
IC50: 4.91

* * *

- System: normal lung fibroblasts MRC-5
- experiment_notes: MTT cell viability assay, MRC-5
- Assay type: cell-based, human
- reported_conditions: MTT, 72 h, mean ± SD, n = 3; read-out: IC50 MRC-5 (normal lung)
Parameter: IC50. Scope: all listed entries.
test_readout: IC50 (µM)

molecule: O=C1NC(CSCSCC2NC(=O)c3cc([N+](=O)[O-])ccc3NC2=O)C(=O)Nc2ccc([N+](=O)[O-])cc21 (centres unmarked) [Compound 10]
tested_system: normal lung fibroblasts MRC-5
test_readout: IC50
recorded_number: 16.9

molecule: N.N.[Cl][Pt][Cl] [Cisplatin, cisplatin, reference compound]
tested_system: normal lung fibroblasts MRC-5
test_readout: IC50
recorded_number: 4.17

* * *

- System: colorectal carcinoma HCT116p53^−/−
- experiment_notes: MTT cell viability assay, HCT116p53-/-
- Assay type: cell-based, human
- reported_conditions: MTT, 72 h, mean ± SD, n = 3; read-out: IC50 HCT116p53^−/− (colon cancer)
test_readout: IC50 (µM)

molecule: N.N.[Cl][Pt][Cl] [Cisplatin, cisplatin, reference compound]
test_readout: IC50
recorded_number: 10.8

* * *

- Test system: colorectal carcinoma HCT116p53^−/−
- experiment_notes: MTT cell viability assay, HCT116p53-/-
- Format: cell-based, human
- reported_conditions: Homo sapiens; MTT, 72 h, mean ± SD, n = 3; read-out: IC50 HCT116p53^−/− (colon cancer)
test_readout: IC50

compound: O=C1NC(CSCSCC2NC(=O)c3cc([N+](=O)[O-])ccc3NC2=O)C(=O)Nc2ccc([N+](=O)[O-])cc21 (stereo not shown)
test_readout: IC50
result: 5.56 µM

Values compiled from paper PMC9953746.
